# Protocol Summary: method code SF, from DOI: 10.1021/jm00167a034, PMID: 2329572
# Experimental Parameters: pH 7.4
Measurement Kind: logD

Cc1cn([C@H]2C[C@H](N=[N+]=[N-])[C@@H](COC(=O)CN3CCOCC3)O2)c(=O)[nH]c1=O | 0.34
Cc1cn(C2CC(N=[N+]=[N-])C(COC(=O)C(N)Cc3ccccc3)O2)c(=O)[nH]c1=O (stereo not given) | 0.52
Cc1cn([C@H]2C[C@H](N=[N+]=[N-])[C@@H](COC(=O)C3=CN(C)C=CC3)O2)c(=O)[nH]c1=O | 0.86
Cc1cn([C@H]2C[C@H](N=[N+]=[N-])[C@@H](COC(=O)CN3CCN(c4ccccc4)CC3)O2)c(=O)[nH]c1=O | 0.96
CC1=C(/C=C/C(C)=C/C=C/C(C)=C/C(=O)OC[C@H]2O[C@@H](n3cc(C)c(=O)[nH]c3=O)C[C@@H]2N=[N+]=[N-])C(C)(C)CCC1 | 1.25

* * *

# Protocol Summary: method code SF-HPLC, from DOI: 10.1248/cpb.32.1929
# Experimental Parameters: pH 7.2
Measurement Kind: logD

COC(COC(N)=O)C1=C(N2CC2)C(=O)C(C)=C(N2CC2)C1=O (stereo unspecified) | 0

* * *

# Protocol Summary: method code SF-GLC, from DOI: 10.1016/s0021-9673(01)83612-8
# Experimental Parameters: pH 13.0
Below is a list of entries, each paired with its recorded logD value.
Measurement Kind: logD

CCCCCC(C)N (centres undefined) | 2.4
CC(N)CC1CCCCC1 (centres undefined) | 2.96
CNC1CCc2ccccc2C1 (centres undefined) | 2.38
CC1Cc2ccccc2CN1 (centres undefined) | 1.93

* * *

# Protocol Summary: method code SF-AS, from DOI: 10.1016/s0021-9673(00)91570-x
# Experimental Parameters: pH 3.4
Measurement Kind: logD

COc1cc(CC(=O)O)ccc1OCC1CCCCC1 | 3.35

* * *

Measurement Kind: logP

COc1cccc2c1C(=O)c1c(O)c3c(c(O)c1C2=O)C[C@@](O)(C(=O)CO)C[C@@H]3O[C@H]1C[C@H](N)[C@H](I)[C@H](C)O1 | 1.53

* * *

# Protocol Summary: method code SF, from Huang, Q.; Wang, L.; Han, S.; Wang, G.; Gao, H. (1993). Quantitative relation between molecular structures and the hydrophobic parameters of halogenated arenes. Chemical Journal of Chinese …
Reported logP values for a set of molecules
Measurement Kind: logP

Clc1ccc(Br)cc1 | 3.83
Brc1ccccc1Br | 4.07

* * *

Measurement Kind: logP

Clc1cc(Cl)c(Oc2ccccc2)cc1Cl | 5.44

* * *

# Protocol Summary: method code SF-HPLC, from DOI: 10.1002/ps.2780440103
# Experimental Parameters: pH 2.0
Measurement Kind: logD

CSC(=NOC(=O)N(C)COC1OC(C(=O)O)C(O)C(O)C1O)C(=O)N(C)C (configuration not stated) | -1.98
COC(=O)[C@H]1O[C@@H](Oc2ccc3ccc(=O)oc3c2)[C@H](O)[C@@H](O)[C@@H]1O | -1.08

* * *

# Protocol Summary: method code SF-AS, from DOI: 10.1002/jps.2600611027, PMID: 5072421
Measurement Kind: logP

CCCCCCc1ccncc1 | 4.35
CCCCCCCc1ccncc1 | 5
CCCCCc1ccncc1 | 3.75

* * *

# Protocol Summary: method code SF-AS, from DOI: 10.1021/jm00254a028, PMID: 4845386
Measurement Kind: logP

NC(=O)OC1c2ccccc2C2CCCCC2C1OC(N)=O (stereo unspecified) | 2.17

* * *

Documented logP across a set of compounds
Measurement Kind: logP

COc1ccc2c(c1)OCc1c-2oc2cc3c(cc12)C=CC(C)(C)O3 | 3.18
O=c1oc2cc(O)ccc2c2oc3cc(O)ccc3c12 | 2.69
Oc1ccc2c(c1)OC[C@H]1c3cc4c(cc3O[C@@H]21)OCO4 | 2.61
CC1(C)C=Cc2cc3c(cc2O1)OC1c2ccc(O)cc2OCC31O (stereo not given) | 2.62
COc1ccc([C@@H]2COc3cc(O)ccc3C2)c(OC)c1 | 3.21

* * *

# Protocol Summary: method code SF-C, from DOI: 10.1021/ja00901a033
Measurement Kind: logP

N#Cc1ccc(OCC(=O)O)cc1 | 1.11
O=C(O)COc1ccc(I)cc1 | 2.69
Cc1ccc(OCC(=O)O)cc1 | 1.95

* * *

# Protocol Summary: method code SF-AS, from DOI: 10.1021/jm00307a001, PMID: 5637185
Measurement Kind: logP

C#CC1(O)CCCCC1 | 1.73

* * *

# Protocol Summary: method code SF-AS, from PMID: 7149911
# Experimental Parameters: pH 8.9
Measurement Kind: logD

CN(N=O)C(N)=O | -0.4

* * *

Overview of reported logP across a group of compounds:
# Protocol Summary: method code SF-AS, from DOI: 10.1021/jm00223a031, PMID: 810572
Measurement Kind: logP

Nc1ccc(O)c2ncccc12 | -0.11
Cc1ccc(O)c2ncccc12 | 2.37
COc1ccc(O)c2nccc(C)c12 | 2.75
Cc1ccnc2c(O)ccc(O)c12 | 1.59
Cc1ccnc2c(O)ccc(C)c12 | 2.71
Oc1ccnc2c(O)cccc12 | 0.62

* * *

# Protocol Summary: method code SF-HPLC, from DOI: 10.1016/j.ejps.2016.07.010, PMID: 27422078
# Experimental Parameters: pH 7.4
Measurement Kind: logD

Cc1cc(=O)c2c(O)cc(O)c(C3CCN(C)CC3OC(=O)c3ccccc3)c2o1 (stereo unspecified) | 2.33

* * *

# Protocol Summary: method code SF, from He, J.; Lang, L.; Zhang, Q.; Dong, L.; Chen, F.; Xu, G. (2010). Study on physicochemical properties of helicid. China Pharmacy, (1)23-25.
# Experimental Parameters: pH 2.0
Measurement Kind: logD

O=Cc1ccc(O[C@@H]2O[C@H](CO)[C@@H](O)[C@@H](O)[C@H]2O)cc1 | -1.08

* * *

Entries and their logP
Measurement Kind: logP

COC(=O)C(C)Oc1ccc(Oc2ncc(C(F)(F)F)cc2Cl)cc1 (stereo not drawn) | 4.07
CCCN(CCCl)c1c([N+](=O)[O-])cc(C(F)(F)F)cc1[N+](=O)[O-] | 4.63
O=C(O)c1cc(Oc2ccc(C(F)(F)F)cc2Cl)ccc1[N+](=O)[O-] | 4.26

* * *

# Protocol Summary: method code SF, from DOI: 10.1021/jm049495j.s001, PMID: 15771458
# Experimental Parameters: pH 12.0
Measurement Kind: logD

c1ccc2c(c1)CCn1ccnc1C21CCNCC1 | 1.18

* * *

Measurement Kind: logP

CCCCCCC | 4.48

* * *

The compounds listed here are annotated with their logP.
Measurement Kind: logP

CCC1ON=C(C)C1N=C1C=C(OC)C(=O)c2ccccc21 (centres undefined) | 2.43
CCCc1onc(C)c1N=C1C=C(O)C(=O)c2ccccc21 | 2.52
CCc1onc(C)c1N=C1C=C(O)C(=O)c2ccccc21 | 2
CCc1onc(C)c1N=C1C=C(Nc2c(C)noc2CC)C(=O)c2ccccc21 | 2.71

* * *

Measurement Kind: logP

O=C(O)c1ccccc1Nc1cccc(O)c1 | 3.43
COc1cccc(Nc2ccccc2C(=O)O)c1 | 4.31
CC(=O)c1cccc(Nc2ccccc2C(=O)O)c1 | 4.07

* * *

Measurement Kind: logP

O=S(c1cc(Cl)cc(Cl)c1O)c1cc(Cl)cc(Cl)c1O | 4.13

* * *

# Protocol Summary: method code SF, from DOI: 10.1016/s0021-9673(03)00534-x, PMID: 12800922
# Experimental Parameters: pH 11.0
Overview of recorded logD for various compounds
Measurement Kind: logD

CC(C)(C)NC[C@H](O)COc1ccccc1C1CCCC1 | 3.61
CC(C)(C)NCC(O)COc1cccc2c1CCC(=O)N2 (configuration not stated) | 1.49

* * *

# Protocol Summary: method code SF-AS, from DOI: 10.1248/cpb.40.925
Measurement Kind: logP

COC(=O)c1ccoc1 | 1.28
Cn1cccc1 | 1.15

* * *

# Protocol Summary: method code SF-RC,AS, from DOI: 10.1021/es60170a013
# Experimental Parameters: pH 8.7
Measurement Kind: logD

Nc1ccc(-c2ccc(N)c(Cl)c2)cc1Cl | 3.51

* * *

# Protocol Summary: method code SF-AS, from DOI: 10.1002/ps.2780370107
# Experimental Parameters: pH 0.0
Measurement Kind: logD

CCOP(=O)(O)Cc1ccc(Cl)cc1 | 1.6

* * *

# Protocol Summary: method code SF-RC, from DOI: 10.1016/s0969-8051(01)00199-8, PMID: 11395310
# Experimental Parameters: pH 7.4
Measurement Kind: logD

CCN1CCC[C@H]1CNC(=O)c1c(OC)ccc(I)c1O | 2.85

* * *

# Protocol Summary: method code SF-AS, from DOI: 10.1093/oxfordjournals.jbchem.a131041, PMID: 939756
# Experimental Parameters: pH 7.4
Measurement Kind: logD

COC1=C(C2=C(OC)C(=O)c3c4c(cc(OC)c3C2=O)CC(C)OC4=O)C(=O)c2c(OC)cc3c(c2C1=O)C(=O)OC(C)C3 (configuration not stated) | 0.69
COC1=C(C2=C(OC)C(=O)c3cc4c(c(O)c3C2=O)C(=O)O[C@H](C)C4)C(=O)c2c(cc3c(c2O)C(=O)O[C@H](C)C3)C1=O | 0.37

Cited source: the SangsterLogP compilation
